Reported Average blood glucose values follow for various substances
system: Sprague-Dawley rats; experiment: PD studies: blood glucose after subcutaneous dosing; assay type: in vivo; settings: sc, dose 30 nmol/kg, time 6 days
Express the result in mM but write the number alone.

A14E, A21G, A22(GQAPGQAPGQEP)6-GQAP, A98K^, A99P, B3Q, B25H, B29R, desB30 human insulin/(227A, 234A, 235K, 297E, 315Q, 3840, des447 hIgG4-Fc(228-447))4-[bis[2-[(2-acetyl)amino]ethyl]amino]-4-oxo-butanoyl Conjugate [Example 5.13] | 5.908

Could you tell me which Average blood glucose is on file for A14E, A21G, A22(GQAPGQEP)6, A70K^, A71P, B25H, B29R, desB30 human insulin/(227A, 234A, 235K hIgG4-Fc(228-447))4-[bis[2-[(2-acetyl)amino]ethyl]amino]-4-oxo-butanoyl Conjugate [Example 5.9] ?
6.244

Also A14E, A21G, A22(GQAPGQEP)6, A70K^, A71P, B25H, B29R, desB30 human insulin/(227A, 234A, 235K, 297E, 315Q, 384Q, des447 hIgG4-Fc(228-447))4-[bis[2-[(2-acetyl)amino]ethyl]amino]-4-oxo-butanoyl Conjugate [Example 5.14] ?
6.032
